Test: Plasma pharmacokinetics, phase 1b multiple-dose drug-drug interaction study
Type: in vivo, human
Conditions: male, human, plasma, oral, 300 mg
measure-name: Cmax (ng/mL)
Provide the reading as a plain figure in ng/mL.

Measured Cmax of O=c1[nH]c(=O)c2c[nH]nc2[nH]1 : 12800

These data points were gathered from paper PMC6099444.
